SYSTEM NAME: Chymotrypsin (Bos taurus)
Construct: purchased Sigma-Aldrich
EXPERIMENT NOTES: Chymotrypsin inhibition, fluorogenic substrate assay (Suc-Ala-Ala-Pro-Phe-AMC)
Assay type: biochemical
EXPERIMENTAL SETUP: Chymotrypsin; inhibitor concentration 3000 nM; 40 min pre-incubation
QUANTITY MEASURED: Mean (RFU/s)
Answer with a number only, understood to be in RFU/s.

MOLECULE	SYSTEM NAME	Mean (RFU/s)
CC=C1NC(=O)[C@@H](NC(=O)[C@@H](NC(=O)[C@@H]2CCCN2C(=O)CCC)[C@@H](C)OC(=O)C2CCCN2C(=O)CCC)[C@@H](C)OC(=O)[C@H](C(C)C)NC(=O)[C@H](Cc2ccc(O)cc2)N(C)C(=O)[C@H](Cc2ccccc2)N2C(=O)[C@H](CC[C@H]2O)NC1=O (stereo partly drawn) [Rivulariapeptolide 1155, rivulariapeptolide 1155]	Chymotrypsin (Bos taurus)	0
C/C=C1\NC(=O)[C@@H](NC(=O)[C@@H](NC(=O)[C@H](C)NC(=O)CCC)[C@@H](C)O)[C@@H](C)OC(=O)[C@H](C(C)C)NC(=O)[C@H](Cc2ccc(O)c(Br)c2)N(C)C(=O)[C@H](Cc2ccccc2)N2C(=O)[C@H](CC[C@H]2O)NC1=O [Molassamide B, molassamide B]	Chymotrypsin (Bos taurus)	0

Now look at this one.
Measured Mean (RFU/s) for this entry CC=C1NC(=O)[C@@H](NC(=O)[C@@H](NC(=O)[C@@H]2CCCN2C(=O)CCC)[C@@H](C)O)[C@@H](C)OC(=O)[C@H](C(C)C)NC(=O)[C@H](Cc2ccc(O)cc2)N(C)C(=O)[C@H](Cc2ccccc2)N2C(=O)[C@H](CC[C@H]2O)NC1=O [Rivulariapeptolide 988, rivulariapeptolide 988] on Chymotrypsin (Bos taurus): 0.1363
